# testTarget: T1, CRBN, Q96SW2;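 note: pooled lentiviral library of zinc finger degron-EGFP fusions in mCherry-positive Jurkat cells, FACS-sorted after compound exposure, with degron abundance counted by next-generation sequencing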
# T1 chain: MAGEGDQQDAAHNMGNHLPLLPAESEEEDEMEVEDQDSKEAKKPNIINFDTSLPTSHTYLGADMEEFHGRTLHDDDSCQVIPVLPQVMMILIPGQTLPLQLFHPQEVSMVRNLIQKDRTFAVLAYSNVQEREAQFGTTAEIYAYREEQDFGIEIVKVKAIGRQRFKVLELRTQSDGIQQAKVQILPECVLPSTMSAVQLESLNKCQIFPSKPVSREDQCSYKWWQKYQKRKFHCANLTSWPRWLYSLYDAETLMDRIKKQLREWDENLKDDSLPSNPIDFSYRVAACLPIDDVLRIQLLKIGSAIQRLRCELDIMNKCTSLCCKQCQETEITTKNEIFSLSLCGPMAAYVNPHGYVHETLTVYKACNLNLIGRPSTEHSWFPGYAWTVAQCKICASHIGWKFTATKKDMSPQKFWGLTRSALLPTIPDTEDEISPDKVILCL
# protocolDetails: log2 fold change of degron read counts, EGFP-low vs EGFP+ sorted cells (limma voom), compound-induced degradation; higher = more compound-induced degradation of the degron-EGFP fusion; degrons are variants of IKZF1/3 zinc finger 2; compound dose not given here
# conditionSummary: Jurkat; 18 h; compound: compound 19 (5-tert-butyl-thalidomide)
Over roughly 8,300 sequences, “log2 fold change of degron read counts, EGFP-low vs EGFP+ sorted cells (limma voom), compound-induced degradation” has its median near -1.1; the highest 2% begin near 3.2. Only a selection was taken, and the highest values are over-represented in it overall.
testReadout: log2 fold change of degron read counts

Need log2 fold change of degron read counts, item LMCPICGFYCTQKGNLLRHIKL [46L_47M_49P_50I_52G_53F_54Y_55C_67L_, Q9UKT9]
0.482

Need log2 fold change of degron read counts, item FGCEICGHTFTQKGNLLRHIKL [46F_47G_49E_50I_52G_53H_54T_55F_67L_, Q9UKT9]
-3.25

Need log2 fold change of degron read counts, item LSCPICGFYCTQKGNLLRHIKL [46L_47S_49P_50I_52G_53F_54Y_55C_67L_, Q9UKT9]
2.68

Need log2 fold change of degron read counts, item FTCEICGRVFTQKGNLLRHIKL [46F_47T_49E_50I_52G_53R_54V_55F_67L_, Q9UKT9]
-2.27

Need log2 fold change of degron read counts, item FSCSVCGHMFTQKGNLLRHIKL [46F_47S_49S_50V_52G_53H_54M_55F_67L_, Q9UKT9]
-2.17

Need log2 fold change of degron read counts, item LVCPICGFYCTQKGNLLRHIKL [46L_47V_49P_50I_52G_53F_54Y_55C_67L_, Q9UKT9]
1.01

Need log2 fold change of degron read counts, item FACEICGAPFTQKGNLLRHIKL [46F_47A_49E_50I_52G_53A_54P_55F_67L_, Q9UKT9]
3.6

Need log2 fold change of degron read counts, item LHCPICGFYCTQKGNLLRHIKL [46L_47H_49P_50I_52G_53F_54Y_55C_67L_, Q9UKT9]
2.56

Need log2 fold change of degron read counts, item FLCEQCGAMFTQKGNLLRHIKL [46F_47L_49E_50Q_52G_53A_54M_55F_67L_, Q9UKT9]
-2.2

Need log2 fold change of degron read counts, item LGCPICGFYCTQKGNLLRHIKL [46L_47G_49P_50I_52G_53F_54Y_55C_67L_, Q9UKT9]
3.53

Need log2 fold change of degron read counts, item LACPICGFYCTQKGNLLRHIKL [46L_47A_49P_50I_52G_53F_54Y_55C_67L_, Q9UKT9]
3.56

Need log2 fold change of degron read counts, item FNCEICGACFTQKGNLLRHIKL [46F_47N_49E_50I_52G_53A_54C_55F_67L_, Q9UKT9]
2.72

Need log2 fold change of degron read counts, item FECNICGAHFTQKGNLLRHIKL [46F_47E_49N_50I_52G_53A_54H_55F_67L_, Q9UKT9]
-1.95

Need log2 fold change of degron read counts, item FTCEICGAPFTQKGNLLRHIKL [46F_47T_49E_50I_52G_53A_54P_55F_67L_, Q9UKT9]
2.99

Need log2 fold change of degron read counts, item FHCNICGAIFTQKGNLLRHIKL [46F_47H_49N_50I_52G_53A_54I_55F_67L_, Q9UKT9]
-0.569

Need log2 fold change of degron read counts, item FYCPICGADFTQKGNLLRHIKL [46F_47Y_49P_50I_52G_53A_54D_55F_67L_, Q9UKT9]
1.73

Need log2 fold change of degron read counts, item FLCDVCGAKFTQKGNLLRHIKL [46F_47L_49D_50V_52G_53A_54K_55F_67L_, Q9UKT9]
-1.99

Need log2 fold change of degron read counts, item FHCEICGACFTQKGNLLRHIKL [46F_47H_49E_50I_52G_53A_54C_55F_67L_, Q9UKT9]
2.97

Need log2 fold change of degron read counts, item FICNQCGHQFTQKGNLLRHIKL [46F_47I_49N_50Q_52G_53H_54Q_55F_67L_, Q9UKT9]
-3.84

Need log2 fold change of degron read counts, item FWCEICGACFTQKGNLLRHIKL [46F_47W_49E_50I_52G_53A_54C_55F_67L_, Q9UKT9]
3.85

Need log2 fold change of degron read counts, item FLCEICGACFTQKGNLLRHIKL [46F_47L_49E_50I_52G_53A_54C_55F_67L_, Q9UKT9]
1.19

Need log2 fold change of degron read counts, item FSCEQCGAHFTQKGNLLRHIKL [46F_47S_49E_50Q_52G_53A_54H_55F_67L_, Q9UKT9]
-1.34

Need log2 fold change of degron read counts, item FCCPICGAPFTQKGNLLRHIKL [46F_47C_49P_50I_52G_53A_54P_55F_67L_, Q9UKT9]
3.65

Need log2 fold change of degron read counts, item FDCEICGAPFTQKGNLLRHIKL [46F_47D_49E_50I_52G_53A_54P_55F_67L_, Q9UKT9]
2.21

Need log2 fold change of degron read counts, item FECEICGAPFTQKGNLLRHIKL [46F_47E_49E_50I_52G_53A_54P_55F_67L_, Q9UKT9]
2.7

Need log2 fold change of degron read counts, item FGCDVCGAVFTQKGNLLRHIKL [46F_47G_49D_50V_52G_53A_54V_55F_67L_, Q9UKT9]
-0.0514

Need log2 fold change of degron read counts, item LQCPICGFYCTQKGNLLRHIKL [46L_47Q_49P_50I_52G_53F_54Y_55C_67L_, Q9UKT9]
1

Need log2 fold change of degron read counts, item FHCEICGADFTQKGNLLRHIKL [46F_47H_49E_50I_52G_53A_54D_55F_67L_, Q9UKT9]
-1.38

Need log2 fold change of degron read counts, item FHCPQCGATFTQKGNLLRHIKL [46F_47H_49P_50Q_52G_53A_54T_55F_67L_, Q9UKT9]
-1.34
